System: MALME-3M melanoma
Test: NCI tumour cell line growth inhibition, 48 h
Below, each of the compounds is paired with its reported GI50 value.

Solved entries:
In [3]: df
Out[3]:
                                   compound     result
0  CCC[CH2][Sn]1([CH2]CCC)[O]C(=O)c2cccc([N+](=O)[O-])c2C(=O)[O]1     189 nM
1        Cc1cc(I)cc(CN(C)CCCN2CCC(C)CC2)c1O   16900 nM
2  COc1cc(OC)c(/C=C/C(=O)c2c(OC)cc(OC)cc2OC)c(OC)c1    1070 nM
3  CC(=O)C1=C(C)N(Cc2ccccc2)C2(O)C=CC(=O)C3=C(O)c4ccccc4C(=O)C312 (stereo not given)    1440 nM
4  COc1ccc(C(=O)/C=C/c2ccc(OCc3cccc(C(F)(F)F)c3)c(OC)c2)cc1OC  271000 nM

Please turn your attention to the following entry.
With MALME-3M melanoma as the test system, Cc1cc(OCc2ccc(C(F)(F)F)cc2)c2c(c1)C(=O)C=C(NCCN1CCCC1)C2=O showed GI50 of 2090 nM

###

System: MALME-3M melanoma
Assay: NCI tumour cell line growth inhibition, 48 h
READOUT_TYPE: TGI (µM)
Reply with just the number (in µM).

Solved entries:
In [3]: df
Out[3]:
                                   compound  result_number
0  Clc1ccc2c(NC3CCC(N4CCCCC4)CC3)ccnc2c1 (centres undefined)           36.1
1  Cc1cc(OCc2ccc(C(F)(F)F)cc2)c2c(c1)C(=O)C=C(NCCN1CCCC1)C2=O           3.95
2  COC(=O)C1=C(C)NC(C)=C(C(=O)OC)C1c1cccc(/[N+]([O-])=C/c2ccccc2)c1           29.9

Please turn your attention to the following entry.
What the record says about O=C(Nc1ccc(Br)cc1)C(=O)C(C(=O)c1ccc(Cl)c(Cl)c1)C1OC(=O)c2ccccc21 (centres undefined) : TGI is 24.1

###

Below, each of the molecules is paired with its reported TGI value.
Test system: IGROV1 ovarian
Experiment: NCI tumour cell line growth inhibition, 48 h
Reply with just the number (in µM).

MOLECULE	SYSTEM_UNDER_TEST	READOUT_TYPE	UNIT_TEXT	RESULT_NUMBER
Cc1ccsc1C(NC(=O)c1ccccc1)c1cc(Cl)c2cccnc2c1O (stereo unspecified)	IGROV1 ovarian	TGI	µM	4.77
N=C1C=CC(=C(c2ccc(N)cc2)c2ccc(N)cc2)C=C1	IGROV1 ovarian	TGI	µM	31.5
NC1(c2cc3ccccc3s2)CCCCCC1	IGROV1 ovarian	TGI	µM	32.6
Cc1cc(OCc2ccc(C(F)(F)F)cc2)c2c(c1)C(=O)C=C(NCCN1CCCC1)C2=O	IGROV1 ovarian	TGI	µM	25.1
COc1ccc2c3ccnc(C(F)(F)F)c3n(CCCCN)c2c1	IGROV1 ovarian	TGI	µM	14.5
O=C1C2=C(C(=O)c3ccccc31)C(O)(S(=O)(=O)O)C(O)(S(=O)(=O)O)C1N=CC=CC21 (stereo unspecified)	IGROV1 ovarian	TGI	µM	9.5
O=[N+]([O-])c1ccc2c(c1)C(N1CCN(CCO)CC1)Cc1ccc(F)cc1S2 (stereo unspecified)	IGROV1 ovarian	TGI	µM	15.7
CCO/C=C\C12CCCC1NC(c1ccccc1)(c1ccccc1)O2 (stereo unspecified)	IGROV1 ovarian	TGI	µM	71.1
COC(=O)N[C@@H]1C[C@H]2CC[C@]1(O[Si](C(C)C)(C(C)C)C(C)C)C(=O)C2	IGROV1 ovarian	TGI	µM	32

Please turn your attention to the following entry.
What the record says about O/N=C1\C/C(=N\O)c2c(Br)sc(Br)c21 : TGI is 97.8
